Data provenance is patent US10556900B2.

target: human TrkA receptor (Homo sapiens (Human), UniProt P04629); assay: TrkA functional activity, DiscoverX PathHunter assay (NGF-stimulated U2OS cells); conditions: U2OS cells expressing human TrkA-Prolink, Shc1-EA and p75NTR; compound 1 h, then NGF (~80% of maximal response) 3 h; luminescence
Sequence (P04629 33-796): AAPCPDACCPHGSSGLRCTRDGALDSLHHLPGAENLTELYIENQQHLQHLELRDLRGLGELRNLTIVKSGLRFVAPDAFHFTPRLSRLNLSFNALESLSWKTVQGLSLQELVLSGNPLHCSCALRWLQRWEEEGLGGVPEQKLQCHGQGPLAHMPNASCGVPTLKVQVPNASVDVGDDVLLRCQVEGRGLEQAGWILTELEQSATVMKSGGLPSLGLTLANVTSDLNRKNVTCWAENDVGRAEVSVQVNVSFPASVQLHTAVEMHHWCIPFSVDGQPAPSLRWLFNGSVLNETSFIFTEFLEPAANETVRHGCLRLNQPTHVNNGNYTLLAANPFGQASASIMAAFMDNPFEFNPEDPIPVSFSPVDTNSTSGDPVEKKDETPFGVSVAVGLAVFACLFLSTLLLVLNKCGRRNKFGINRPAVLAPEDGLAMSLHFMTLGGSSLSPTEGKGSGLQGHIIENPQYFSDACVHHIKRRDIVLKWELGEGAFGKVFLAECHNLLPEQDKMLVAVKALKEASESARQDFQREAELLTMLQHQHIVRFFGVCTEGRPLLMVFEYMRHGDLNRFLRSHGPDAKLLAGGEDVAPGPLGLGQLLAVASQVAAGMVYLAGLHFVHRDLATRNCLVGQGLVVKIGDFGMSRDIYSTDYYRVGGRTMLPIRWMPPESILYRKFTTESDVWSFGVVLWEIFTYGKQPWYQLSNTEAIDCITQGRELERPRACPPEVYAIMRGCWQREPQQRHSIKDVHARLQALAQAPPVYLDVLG
Give measured IC50 for each item. Keep answers brief.
Give bare numbers, in nM.

// solved cases for IC50 follow
| compound | units.label | measured.value |
| --- | --- | --- |
| CC(O)c1n[nH]c2c(NC(=O)c3cc(-c4ncccn4)c(C(F)(F)F)cc3F)c(-c3ccccc3)ccc12 (racemic) [Compound 46] | nM | 2.9 |
| CC(O)c1cnc2c(NC(=O)c3cc(-c4ncccn4)c(C(F)(F)F)cc3F)c(-c3ccccc3)ccn12 (single isomer, unassigned) [Compound 9] | nM | 3.3 |
| CC(O)c1cnc2c(NC(=O)c3cc(-c4cc[nH]n4)c(C(F)(F)F)cc3F)c(-c3ccccc3)ccn12 (single isomer, unassigned) [Compound 28] | nM | 1.8 |
| CC(=O)c1c[nH]c2c(NC(=O)c3ccc(C(F)(F)F)c(-c4ccn(C)n4)c3)c(-c3ccccc3)ccc12 | nM | 5 |
| CCOC(=O)c1cnc2c(NC(=O)c3cc(-c4ccn(C)n4)c(C(F)(F)F)s3)c(-c3ccccc3)ccn12 | nM | 204 |

Entry CC(O)c1cnc2c(NC(=O)c3cc(-c4cc[nH]n4)c(C(F)(F)F)cc3F)c(-c3ccccc3)ccn12 (single isomer, unassigned) [Compound 27] — recorded IC50 = 3.5
